Data provenance is patent US20260151494A1.

Assign hCD71:HSA to each entry below.
# tgt: T1, human CD71 extracellular domain (human, UniProt P02786 89-760)
# T1 construct: also called hCD71; CD71-ECD
# assay_info: primary ELISA; signal over HSA control
Supply the numeric figure in ratio, leaving out any unit text.

Exam item: Recorded hCD71:HSA of CD71-binding FN3 domain SEQ ID NO 398 (designed binder) MLPAPKNLVVSRVTEDSARLSWTAPDAAFDSFFIGYLEPQPPGEAIYLTVPGSERSYDLTGLKPGTEYNVTIQGVKGGFPSKPLTANFTT , please.
Marked response: 132

Exam item: Next binder: CD71-binding FN3 domain SEQ ID NO 346 (designed binder) MLPAPKNLVVSRVTEDSARLSWTAPDAAFDSFFIGYLEPQPPGEAISLFVPGSERSYDLTGLKPGTEYNVTIQGVKGGFPSDPLNATFNT
Marked response: 61

Exam item: Next binder: CD71-binding FN3 domain SEQ ID NO 363 (designed binder) MLPAPKNLVVSRVTEDSARLSWTAPDAAFDSFFIGYLEPQPPGEAIDLWVPGSERSYDLTGLKPGTEYNVTIQGVKGGFPSLPLSAIFTT
Marked response: 273

Exam item: Next binder: CD71-binding FN3 domain SEQ ID NO 355 (designed binder) MLPAPKNLVVSRVTEDSARLSWTAPDAAFDSFFIGYLEPQPPGEAIHLYVPGSERSYDLTGLKPGTEYNVTIQGVKGGFPSHPLYADFTT
Marked response: 257

Exam item: Next binder: CD71-binding FN3 domain SEQ ID NO 358 (designed binder) MLPAPKNLVVSRVTEDSARLSWTAPDAAFDSFEIGYWENAYKGEAIVLTVPGSERSYDLTGLKPGTEYVVFIGGVKGGVWSVPLSAIFTT
Marked response: 39

Exam item: Next binder: CD71-binding FN3 domain SEQ ID NO 385 (designed binder) MLPAPKNLVVSRVTEDSARLSWTAPDAAFDSFFIGYLEPQPPGEAIDLYVPGSERSYDLTGLKPGTEYNVTIQGVKGGFPSHPLQAHFTT
Marked response: 142

Exam item: Next binder: CD71-binding FN3 domain SEQ ID NO 432 (designed binder) MLPAPKNLVVSRVTEDSARLSWTAPDAAFDSFFIGYLEPQPPGEAIALYVPGSERSYDLTGLKPGTEYNVTIQGVKGGFPSGPLEAYFTT
Marked response: 94

Exam item: Next binder: CD71-binding FN3 domain SEQ ID NO 349 (designed binder) MLPAPKNLVVSRVTEDSARLSWTAPDAAFDSFFIGYLEPQPPGEAIELYVPGSERSYDLTGLKPGTEYNVTIQGVKGGFPSEPLIAHFTT
Marked response: 22

Exam item: Next binder: CD71-binding FN3 domain SEQ ID NO 444 (designed binder) MLPAPKNLVVSRVTEDSARLSWTAPDAAFDSFEIDYVEFIFTGEAIGLIVPGSERSYDLTGLKPGTKYWVTIAGVKGGEWSTPLQAFFTT
Marked response: 48
